Where do these numbers come from? They come from patent US5648336A.

Target: B1 receptors (Oryctolagus cuniculus)
Construct: The thorax was opened and the thoracic aorta carefully removed; from tissue; host or cells: rabbit thoracic aorta spiral strips
Sequence (P48748 whole entry): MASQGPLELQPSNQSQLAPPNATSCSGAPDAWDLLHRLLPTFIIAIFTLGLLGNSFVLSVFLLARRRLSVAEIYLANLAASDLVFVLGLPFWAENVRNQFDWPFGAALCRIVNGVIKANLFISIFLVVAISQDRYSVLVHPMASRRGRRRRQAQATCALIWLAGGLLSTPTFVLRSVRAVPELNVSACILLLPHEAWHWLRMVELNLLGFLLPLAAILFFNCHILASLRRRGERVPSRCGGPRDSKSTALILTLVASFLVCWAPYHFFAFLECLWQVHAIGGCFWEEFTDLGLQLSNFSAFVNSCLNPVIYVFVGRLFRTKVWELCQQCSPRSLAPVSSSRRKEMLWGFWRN
Test: B1 receptor bioassay, rabbit aorta strips contracted with des-Arg9-BK
Type: cell-based
Details: 50% reduction of sustained contraction to 10^-7 M des-Arg9-BK; read-out: Rabbit Aorta p IC50 B1 receptors (converted)
Please provide measured IC50 for the entries that follow.
Your answer should be a plain number; it is taken to be in nM.

Task: Given the compound N=C(N)NCCC[C@H](NC(=O)[C@@H]1C[C@@H]2CCCC[C@@H]2N1C(=O)[C@H](NC(=O)[C@H](CO)NC(=O)[C@H](Cc1cccs1)NC(=O)CNC(=O)[C@@H]1C[C@@H](O)CN1C(=O)[C@@H]1CCCN1C(=O)[C@H](CCCNC(=N)N)NC(=O)[C@@H](CCCNC(=N)N)NC(=O)C12CC3CC(CC(C3)C1)C2)C1Cc2ccccc2C1)C(=O)O [Compound 55] , what is its reported IC50?
Result: 269

Task: What value of measured IC50 is listed for N=C(N)NCCC[C@@H](N)C(=O)N[C@@H](CCCNC(=N)N)C(=O)N1CCC[C@H]1C(=O)N1C[C@H](O)C[C@H]1C(=O)NCC(=O)N[C@H](C(=O)N[C@@H](CO)C(=O)N[C@@H](C(=O)N[C@@H](C(=O)N[C@@H](CCCNC(=N)N)C(=O)O)C1Cc2ccccc2C1)C1CCCC1)C1CCCC1 [Compound 11] ?
Result: 398
